Catalogue of clearance values
Assay: Clearance in Crl:CD(SD) rat at 1 mg/kg, iv by LC-MS/MS analysis
Format: ADME, organism-based
Conditions: in vivo
MEASUREMENT_LABEL: clearance (mL/min/kg)

>  <COMPOUND>
CN(C(=O)COc1ccc(Cl)nn1)C1CCN(CC2CC2(F)F)CC1 (stereo not drawn)

>  <QUANTITATIVE_RESULT>
38.3

$$$$
>  <COMPOUND>
Cc1nc(OCC(=O)N(C)C2CCN(CC3CC3(F)F)CC2)nc(C)c1N.Cl (racemic)

>  <QUANTITATIVE_RESULT>
38.3

$$$$
>  <COMPOUND>
Cc1nc(OCC(=O)N(C)C2CCN(Cc3ccccc3)CC2)nc(C)c1N

>  <QUANTITATIVE_RESULT>
41.7

$$$$

---

Catalogue of bioavailability values
Assay: Oral bioavailability in Crl:CD(SD) rat at 5 mg/kg by LC-MS/MS analysis
Format: ADME, organism-based
Conditions: in vivo
MEASUREMENT_LABEL: bioavailability (%)

>  <COMPOUND>
CN(C(=O)COc1ccc(Cl)nn1)C1CCN(CC2CC2(F)F)CC1 (configuration not stated)

>  <UNIT_OF_MEASUREMENT>
%

>  <QUANTITATIVE_RESULT>
73

$$$$
>  <COMPOUND>
Cc1nc(OCC(=O)N(C)C2CCN(CC3CC3(F)F)CC2)nc(C)c1N.Cl (racemic)

>  <UNIT_OF_MEASUREMENT>
%

>  <QUANTITATIVE_RESULT>
52

$$$$

---

Reported activity at 10 min, 100 µM values are given for each entry in this list.
Biological target: CYP3A4 (Homo sapiens, UniProt P08684)
Sequence (P08684 whole entry): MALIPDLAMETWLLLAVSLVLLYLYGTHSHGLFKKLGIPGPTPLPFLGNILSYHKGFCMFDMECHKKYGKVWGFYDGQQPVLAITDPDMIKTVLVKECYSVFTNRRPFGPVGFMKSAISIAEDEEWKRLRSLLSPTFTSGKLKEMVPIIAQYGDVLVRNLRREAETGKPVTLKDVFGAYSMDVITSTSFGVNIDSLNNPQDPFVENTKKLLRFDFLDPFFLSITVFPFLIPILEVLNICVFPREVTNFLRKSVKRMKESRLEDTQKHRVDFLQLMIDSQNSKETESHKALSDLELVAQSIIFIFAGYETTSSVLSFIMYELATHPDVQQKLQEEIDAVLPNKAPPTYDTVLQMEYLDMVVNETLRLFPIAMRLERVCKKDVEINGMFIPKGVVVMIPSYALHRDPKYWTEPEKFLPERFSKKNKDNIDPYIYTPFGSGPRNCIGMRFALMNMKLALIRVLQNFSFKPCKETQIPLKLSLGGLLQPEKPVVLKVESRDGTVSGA
Test: Mechanism based inactivation of CYP3A4 in human liver microsome assessed as remaining activity at 100 uM preincubated for 30 mins followed testosterone addition and measured after 10 mins by LC-MS/MS analysis relative to control
Type: ADME, microsomes
Details: human liver microsomes, probe testosterone, read-out: Activity

>  <COMPOUND>
Cc1nc(OCC(=O)N(C)C2CCN(CC(F)(F)F)CC2)nc(C)c1N

>  <UNIT_OF_MEASUREMENT>
%

>  <activity at 10 min, 100 µM>
75

$$$$
>  <COMPOUND>
CN(C(=O)COc1ccc(Cl)nn1)C1CCN(CC(F)(F)F)CC1

>  <UNIT_OF_MEASUREMENT>
%

>  <activity at 10 min, 100 µM>
100

$$$$
>  <COMPOUND>
CN(C(=O)COc1ccc(Cl)nn1)C1CCN(CC2CC2(F)F)CC1 (stereo unspecified)

>  <UNIT_OF_MEASUREMENT>
%

>  <activity at 10 min, 100 µM>
99

$$$$
>  <COMPOUND>
CN(C(=O)COc1ccc(Cl)nn1)C1CCN(Cc2ncccc2F)CC1

>  <UNIT_OF_MEASUREMENT>
%

>  <activity at 10 min, 100 µM>
100

$$$$
>  <COMPOUND>
Cc1nc(OCC(=O)N(C)C2CCN(Cc3ccccc3)CC2)nc(C)c1N

>  <UNIT_OF_MEASUREMENT>
%

>  <activity at 10 min, 100 µM>
60

$$$$
>  <COMPOUND>
Cc1nc(OCC(=O)N(C)C2CCN(C3(C)COC3)CC2)nc(C)c1N

>  <UNIT_OF_MEASUREMENT>
%

>  <activity at 10 min, 100 µM>
97

$$$$
>  <COMPOUND>
Cc1nc(OCC(=O)N(C)C2CN(Cc3ccccc3)C2)nc(C)c1N

>  <UNIT_OF_MEASUREMENT>
%

>  <activity at 10 min, 100 µM>
58

$$$$
>  <COMPOUND>
Cc1nc(OCC(=O)N(C)C2CCN(Cc3ncccn3)CC2)nc(C)c1N

>  <UNIT_OF_MEASUREMENT>
%

>  <activity at 10 min, 100 µM>
99

$$$$
>  <COMPOUND>
Cc1nc(OCC(=O)N(C)C2CCN(Cc3ncccc3F)CC2)nc(C)c1N

>  <UNIT_OF_MEASUREMENT>
%

>  <activity at 10 min, 100 µM>
62

$$$$
>  <COMPOUND>
Cc1nc(OCC(=O)N2CC[C@@H]3[C@H]2CN3Cc2ccccc2)nc(C)c1N

>  <UNIT_OF_MEASUREMENT>
%

>  <activity at 10 min, 100 µM>
40

$$$$
>  <COMPOUND>
Cc1nc(OCC(=O)N(C)C2CCN(Cc3ccccc3)C2)nc(C)c1N (stereo unspecified)

>  <UNIT_OF_MEASUREMENT>
%

>  <activity at 10 min, 100 µM>
55

$$$$
>  <COMPOUND>
Cc1nc(OCC(=O)N(C)[C@H]2CN(Cc3ccccc3)C[C@@H]2O)nc(C)c1N (relative stereo)

>  <UNIT_OF_MEASUREMENT>
%

>  <activity at 10 min, 100 µM>
55

$$$$
>  <COMPOUND>
Cc1nc(OCC(=O)N(C)C2CCN(C3COC3)CC2)nc(C)c1N

>  <UNIT_OF_MEASUREMENT>
%

>  <activity at 10 min, 100 µM>
95

$$$$
>  <COMPOUND>
Cc1nc(OCC(=O)N(C)C2CCN(CC3CC3(F)F)CC2)nc(C)c1N.Cl (racemic)

>  <UNIT_OF_MEASUREMENT>
%

>  <activity at 10 min, 100 µM>
86

$$$$
>  <COMPOUND>
Cc1nc(OCC(=O)N(C)C2CCN(CC(F)F)CC2)nc(C)c1N

>  <UNIT_OF_MEASUREMENT>
%

>  <activity at 10 min, 100 µM>
98

$$$$
>  <COMPOUND>
Cc1nc(OCC(=O)N(C)C2CCN(CC(C)(C)O)CC2)nc(C)c1N

>  <UNIT_OF_MEASUREMENT>
%

>  <activity at 10 min, 100 µM>
97

$$$$
